- TEST TARGET: EGFR del19/T790M/C797S (Homo sapiens, UniProt P00533, C797S/DEL746-750/T790M)
- Sequence (P00533 with tags, fused parts or gaps DEL746-750/T790M/C797S): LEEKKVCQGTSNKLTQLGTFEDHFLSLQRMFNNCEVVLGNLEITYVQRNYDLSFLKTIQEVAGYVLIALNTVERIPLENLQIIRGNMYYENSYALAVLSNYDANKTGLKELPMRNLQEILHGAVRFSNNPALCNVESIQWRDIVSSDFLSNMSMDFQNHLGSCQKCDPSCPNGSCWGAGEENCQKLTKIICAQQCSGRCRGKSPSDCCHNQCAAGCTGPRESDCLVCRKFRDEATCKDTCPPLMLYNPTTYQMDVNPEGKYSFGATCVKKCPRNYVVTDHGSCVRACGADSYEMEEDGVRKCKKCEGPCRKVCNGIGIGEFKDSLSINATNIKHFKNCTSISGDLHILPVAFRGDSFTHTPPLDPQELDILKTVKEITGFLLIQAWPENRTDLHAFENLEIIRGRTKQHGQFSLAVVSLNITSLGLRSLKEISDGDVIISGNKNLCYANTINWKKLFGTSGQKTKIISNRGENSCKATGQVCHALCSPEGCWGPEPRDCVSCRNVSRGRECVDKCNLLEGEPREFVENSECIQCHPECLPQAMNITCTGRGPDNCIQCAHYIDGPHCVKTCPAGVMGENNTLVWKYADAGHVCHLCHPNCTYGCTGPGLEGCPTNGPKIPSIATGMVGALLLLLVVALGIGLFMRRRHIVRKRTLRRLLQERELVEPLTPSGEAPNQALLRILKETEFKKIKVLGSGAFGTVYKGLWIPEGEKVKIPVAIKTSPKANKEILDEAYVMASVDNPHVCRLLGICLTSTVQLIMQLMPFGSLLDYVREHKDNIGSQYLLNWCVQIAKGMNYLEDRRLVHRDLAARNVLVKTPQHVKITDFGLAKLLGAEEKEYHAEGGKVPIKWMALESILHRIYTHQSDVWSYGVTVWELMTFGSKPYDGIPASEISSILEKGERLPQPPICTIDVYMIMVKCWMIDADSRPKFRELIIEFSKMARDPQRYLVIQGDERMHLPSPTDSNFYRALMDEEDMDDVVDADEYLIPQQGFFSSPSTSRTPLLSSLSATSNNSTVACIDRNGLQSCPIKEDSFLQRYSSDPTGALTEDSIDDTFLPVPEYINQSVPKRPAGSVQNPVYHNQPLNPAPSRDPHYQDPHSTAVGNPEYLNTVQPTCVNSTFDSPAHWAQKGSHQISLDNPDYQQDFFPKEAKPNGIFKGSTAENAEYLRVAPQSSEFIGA
- EXPERIMENT SUMMARY: Biochemical EGFR kinase assay (Lance Ultra TR-FRET), triple mutant del19/T790M/C797S
- CONDITIONS: Km ATP; read-out: IC50 del19/T790M/C797S (nM) Km ATP
For each entry below, report its IC50 value.

>  <SAMPLE SMILES>
OC1CCN(Nc2cc(Nc3ccnc(-c4cnn(CC(F)F)c4)n3)ncc2-c2ccn(C(F)F)n2)CC1

>  <IC50>
0.9 nM

$$$$
>  <SAMPLE SMILES>
O=C1CC[C@]2(CC[C@H](Nc3cc(Nc4ccnc(-c5cnn(S(=O)(=O)C6CC6)c5)n4)ncc3-c3ccn(C(F)F)n3)CC2)N1

>  <IC50>
0.3 nM

$$$$
>  <SAMPLE SMILES>
C[C@]1(O)CC[C@@H](Nc2cc(Nc3ccnc(-c4cnn(S(=O)(=O)C5CC5)c4)n3)ncc2-c2csc(N3CCOCC3)n2)CC1

>  <IC50>
0.6 nM

$$$$
>  <SAMPLE SMILES>
Cc1ccn(-c2cnc(Nc3ccnc(-c4cnn(S(=O)(=O)C5CC5)c4)n3)cc2N[C@H]2CC[C@@](C)(O)CC2)n1

>  <IC50>
0.2 nM

$$$$
>  <SAMPLE SMILES>
C[C@]1(O)CC[C@@H](Nc2cc(Nc3ccnc(-c4cnn(S(=O)(=O)C5CC5)c4)n3)ncc2-c2cc3n(n2)CCCC3)CC1

>  <IC50>
0.7 nM

$$$$

Please list IC50 recorded for the compound CC(C)Nc1cc(Nc2ccnc(-c3cnn(S(=O)(=O)C4CC4)c3)n2)ncc1-c1ccn(CCC(F)(F)F)n1 1.1 nM

====

- TEST TARGET: EGFR L858R/T790M/C797S (Homo sapiens, UniProt P00533, C797S/L858R/T790M)
- Sequence (P00533 25-1210 T790M/C797S/L858R): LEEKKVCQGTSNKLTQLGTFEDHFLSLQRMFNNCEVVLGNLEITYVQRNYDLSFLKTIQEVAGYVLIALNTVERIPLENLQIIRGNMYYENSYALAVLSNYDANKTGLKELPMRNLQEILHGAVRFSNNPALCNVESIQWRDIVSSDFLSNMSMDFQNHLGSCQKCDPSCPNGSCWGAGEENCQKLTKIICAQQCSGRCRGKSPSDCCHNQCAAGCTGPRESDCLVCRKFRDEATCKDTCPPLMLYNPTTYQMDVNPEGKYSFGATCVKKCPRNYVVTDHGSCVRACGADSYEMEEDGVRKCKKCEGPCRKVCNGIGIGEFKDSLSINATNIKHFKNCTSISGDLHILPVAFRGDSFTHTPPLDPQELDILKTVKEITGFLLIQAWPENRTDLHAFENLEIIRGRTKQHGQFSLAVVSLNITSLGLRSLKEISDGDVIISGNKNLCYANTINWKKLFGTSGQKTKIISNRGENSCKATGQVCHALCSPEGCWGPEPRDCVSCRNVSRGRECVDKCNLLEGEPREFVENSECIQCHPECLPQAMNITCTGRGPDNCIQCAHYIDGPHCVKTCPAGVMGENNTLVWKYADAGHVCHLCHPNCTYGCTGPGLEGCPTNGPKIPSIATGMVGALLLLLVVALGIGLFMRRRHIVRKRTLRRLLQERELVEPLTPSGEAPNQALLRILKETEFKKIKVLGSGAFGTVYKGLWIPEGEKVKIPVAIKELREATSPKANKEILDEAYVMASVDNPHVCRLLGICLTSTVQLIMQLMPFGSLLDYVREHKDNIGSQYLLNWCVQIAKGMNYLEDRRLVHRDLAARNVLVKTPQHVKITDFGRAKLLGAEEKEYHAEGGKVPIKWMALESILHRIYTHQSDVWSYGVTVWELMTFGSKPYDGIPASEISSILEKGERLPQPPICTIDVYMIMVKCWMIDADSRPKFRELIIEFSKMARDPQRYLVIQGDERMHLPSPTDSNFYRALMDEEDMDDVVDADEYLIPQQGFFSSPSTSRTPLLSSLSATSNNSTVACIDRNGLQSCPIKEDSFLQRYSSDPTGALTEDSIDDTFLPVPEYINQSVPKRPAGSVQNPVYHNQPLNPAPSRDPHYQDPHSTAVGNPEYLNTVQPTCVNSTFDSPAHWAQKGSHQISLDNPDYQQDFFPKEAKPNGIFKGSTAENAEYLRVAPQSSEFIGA
- EXPERIMENT SUMMARY: Biochemical EGFR kinase assay (Lance Ultra TR-FRET), triple mutant L858R/T790M/C797S
- CONDITIONS: IC50 L858R/T790M/C797S (nM) 100 μM ATP, 100 μM ATP
IC50 strictly less than 0.7 nM = yes. Otherwise no.

Study these solved cases before continuing.
>  <COMPOUND>
O=S(=O)(C1CC1)n1cc(-c2nccc(Nc3cc(NC4CCC(F)(CO)CC4)c(-c4ccn(C(F)F)n4)cn3)n2)cn1 (stereo not shown)

>  <GROUP LABEL>
no

$$$$
>  <COMPOUND>
CN(C)CCCn1ccc(-c2cnc(Nc3ccnc(-c4cnn(S(=O)(=O)C5CC5)c4)n3)cc2N[C@H]2CC[C@@H](NCCF)CC2)n1

>  <GROUP LABEL>
yes

$$$$
>  <COMPOUND>
Cn1ccc(-c2cnc(Nc3ccnc(-c4cnn(S(=O)(=O)C5CC5)c4)n3)cc2N[C@H]2CC[C@@H](O)CC2)n1

>  <GROUP LABEL>
yes

$$$$

Find out if reported IC50 for O=S(=O)(C1CC1)n1cc(-c2nccc(Nc3cc(N[C@H]4CC[C@@H](O)CC4)c(-c4ccn(C(F)F)n4)cn3)n2)cn1 is less than 0.7 nM no

Find out if reported IC50 for CN(C)C[C@H]1CC[C@@H](Nc2cc(Nc3ccnc(-c4cnn(S(=O)(=O)C5CC5)c4)n3)ncc2-c2cc(C(C)(C)O)n(C)n2)CC1 is less than 0.7 nM yes
